Biological target: recombinant mFTase (affinity purified rat FPTase) (Rattus norvegicus, UniProt Q02293+Q04631)
Assay: FTase scintillation proximity assay
Format: biochemical
Conditions: selectivity mFTase against mGGTase I
readout-type: FTase/GGTase

Before answering, review these 5 worked examples.
[[record]]
compound = "CC(C)=CCC/C(C)=C/CC/C(=C/COP(=O)(O)OP(=O)(O)O)c1ccccc1 [Compound 3-phFPP]"
measured_result = ">340"

[[record]]
compound = "CC(C)=CCC/C(C)=C/CC/C(=C/COP(=O)(O)OP(=O)(O)O)C(C)(C)C [Compound 3-tbFPP]"
measured_result = "˜1600"

[[record]]
compound = "C=CC/C(=C\\COP(=O)(O)OP(=O)(O)O)CC/C=C(\\C)CCC=C(C)C [Compound 3-alFPP]"
measured_result = ">530"

[[record]]
compound = "CC/C(=C\\COP(=O)(O)OP(=O)(O)O)CC/C=C(\\C)CCC=C(C)C [Compound 3-etFPP]"
measured_result = ">460"

[[record]]
compound = "C=C/C(=C\\COP(=O)(O)OP(=O)(O)O)CC/C=C(\\C)CCC=C(C)C [Compound 3-vFPP]"
measured_result = "˜600"


Next compound, please.
Data request: What FTase/GGTase value was documented for this compound, C=CC/C(=C\COP(=O)(O)OP(=O)(O)O)CC/C=C(\C)CC/C=C(\C)CCC=C(C)C [Compound 3-alGGPP] ?
Data returned: 7.5

Value source: patent US6586461B1
